Biological target: Histone deacetylase 6 (Homo sapiens, UniProt Q9UBN7)
Sequence (Q9UBN7 whole entry): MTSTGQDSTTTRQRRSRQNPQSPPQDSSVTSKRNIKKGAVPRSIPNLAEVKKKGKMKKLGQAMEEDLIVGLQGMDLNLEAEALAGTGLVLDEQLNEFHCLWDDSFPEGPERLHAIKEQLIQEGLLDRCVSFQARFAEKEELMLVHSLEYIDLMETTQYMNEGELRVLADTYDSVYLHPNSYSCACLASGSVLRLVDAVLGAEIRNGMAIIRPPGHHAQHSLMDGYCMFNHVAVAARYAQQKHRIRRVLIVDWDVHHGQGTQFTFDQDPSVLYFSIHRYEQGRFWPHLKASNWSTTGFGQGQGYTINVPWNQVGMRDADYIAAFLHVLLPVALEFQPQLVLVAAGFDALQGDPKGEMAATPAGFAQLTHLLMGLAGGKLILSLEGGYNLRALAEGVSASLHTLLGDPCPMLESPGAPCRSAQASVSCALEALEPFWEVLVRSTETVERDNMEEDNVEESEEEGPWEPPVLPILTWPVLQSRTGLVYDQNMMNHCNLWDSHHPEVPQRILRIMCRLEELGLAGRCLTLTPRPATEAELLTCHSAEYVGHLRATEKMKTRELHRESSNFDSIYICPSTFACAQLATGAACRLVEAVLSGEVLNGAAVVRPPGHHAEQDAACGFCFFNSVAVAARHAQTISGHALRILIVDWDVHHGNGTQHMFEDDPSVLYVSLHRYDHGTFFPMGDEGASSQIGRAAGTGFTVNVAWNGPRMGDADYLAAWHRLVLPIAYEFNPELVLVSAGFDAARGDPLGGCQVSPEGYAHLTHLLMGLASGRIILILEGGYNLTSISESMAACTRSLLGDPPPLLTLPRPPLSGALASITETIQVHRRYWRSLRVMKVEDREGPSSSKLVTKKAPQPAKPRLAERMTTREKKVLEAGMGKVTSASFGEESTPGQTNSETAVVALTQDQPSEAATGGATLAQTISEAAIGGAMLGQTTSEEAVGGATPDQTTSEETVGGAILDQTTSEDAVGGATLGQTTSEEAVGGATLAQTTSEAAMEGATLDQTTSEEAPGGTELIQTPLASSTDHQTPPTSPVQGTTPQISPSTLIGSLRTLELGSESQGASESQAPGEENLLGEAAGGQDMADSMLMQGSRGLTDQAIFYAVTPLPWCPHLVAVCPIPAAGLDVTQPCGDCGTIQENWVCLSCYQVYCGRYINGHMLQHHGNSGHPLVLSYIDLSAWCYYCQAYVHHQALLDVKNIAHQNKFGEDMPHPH
Assay: Inhibition of human recombinant HDAC6 using fluorogenic HDAC substrate measured after 20 mins by fluorescence assay
Measured quantity: IC50 (nM)
Give the number; nM is assumed, so skip it.

Look up and state reported IC50 for "COc1ccccc1NC(=O)N[C@H](C(=O)Nc1ccc(C(=O)NO)cc1)c1ccccc1"
294
